target: UniProt O66040; experiment: S. Typhimurium-pJNS25 SdiA reporter, competitive antagonism against 10 nM L-OOHL; assay type: cell-based; conditions: maximal inhibition; 100% minus lowest % activity in presence of 10 nM L-OOHL (2); read-out: inhibition (%)
Sequence (O66040 entry or part of it): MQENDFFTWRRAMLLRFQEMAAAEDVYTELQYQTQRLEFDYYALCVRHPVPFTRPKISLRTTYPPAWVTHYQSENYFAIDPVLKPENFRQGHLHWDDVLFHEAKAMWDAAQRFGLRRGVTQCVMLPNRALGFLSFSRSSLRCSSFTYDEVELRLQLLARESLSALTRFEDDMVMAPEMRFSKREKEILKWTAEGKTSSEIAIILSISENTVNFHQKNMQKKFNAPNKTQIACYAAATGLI
RECORDED_METRIC: Emax

Consider the reported Emax for these molecules:
molecule="O=C(Oc1c(Br)cc(Br)cc1CNC(=O)c1ccccc1[N+](=O)[O-])c1ccccc1Cl [19R, reference compound]" tested_system="UniProt O66040" recorded_metric=Emax reported_value=44%
molecule="O=C(CCc1cccc(I)c1)N[C@H]1CCOC1=O [E33]" tested_system="UniProt O66040" recorded_metric=Emax reported_value=19%
molecule="CCCCCCCCCCCC(=O)N[C@H]1CCOC1=O [A5]" tested_system="UniProt O66040" recorded_metric=Emax reported_value="> 50%"

// for each molecule in input: emit Emax
1. CCCCCCCCCCOc1ccc(C(=O)N[C@H]2CCOC2=O)cc1 [R7]
2. CCOC(=O)CNC(=O)Cc1cccc([N+](=O)[O-])c1 [F40]
3. CCOC(=O)CNC(=O)Cc1ccc(Br)cc1 [F39]
4. O=C(Cc1ccc(-c2ccccc2)cc1)N[C@H]1CCOC1=O [C18]

Response given:
1. 51%
2. 33%
3. 55%
4. 40%
